# measurement target: T1, human ChemerinR (human, UniProt Q99788 3-373)
# T1 sequence: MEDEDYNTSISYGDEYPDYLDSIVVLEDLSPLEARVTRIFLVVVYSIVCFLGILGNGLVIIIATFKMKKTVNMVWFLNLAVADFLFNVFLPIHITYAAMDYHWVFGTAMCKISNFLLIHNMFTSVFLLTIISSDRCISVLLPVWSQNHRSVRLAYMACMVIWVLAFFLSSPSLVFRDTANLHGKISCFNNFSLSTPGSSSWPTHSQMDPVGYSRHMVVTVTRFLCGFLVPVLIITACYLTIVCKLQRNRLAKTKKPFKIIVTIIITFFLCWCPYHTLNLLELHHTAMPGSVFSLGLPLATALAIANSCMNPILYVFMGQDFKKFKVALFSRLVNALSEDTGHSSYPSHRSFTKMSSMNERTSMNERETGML
# test method notes: cell-based or functional assay
No end group written: not given here.
Entries get a class label from measured Mean EC50, intracellular calcium release (aequorin assay). See ranges: lower level (below 0.2 µM), middle level (0.2 µM to below 200 µM), upper level (200 µM or more)

binder="YAPGQFAFS [Human [Ala-2]Chemerin-9]" label_class="lower level"
binder="AFPGQFAFS [Human [Ala-1]Chemerin-9]" label_class="middle level"
binder="PHSFYFPGQFAFS (not fully specified) [Human Chemerin-13]" label_class="lower level"
binder="QRAGEDPHSFYFPGQFAFSK [Human [Lys20]Chemerin-19]" label_class="middle level"
binder="FYFPGQFAFS [Human Chemerin-10]" label_class="lower level"
binder="YFPGQAAFS [Human [Ala-6]Chemerin-9]" label_class="middle level"
binder="PGQFAFS [Human Chemerin-7]" label_class="upper level"
binder="QRAGEDPHSFYFPGQFA [Human [delta-Phe18Ser19]Chemerin-19]" label_class="upper level"
binder="QRAGEDPHSFYFPGQFAF [Human [delta-Ser19]Chemerin-19]" label_class="lower level"
binder="QRAGEDPHSFYFPGQF [Human [delta-Ala17Phe18Ser19]Chemerin-19]" label_class="middle level"
binder="QRAGEDPHSFYFPGQFAFSKALPRS [Human prochemerin-25]" label_class="middle level"
